- Tested on: XBP1(u)-luciferase splicing reporter in HepG2 hepatoma cells
- Test: HepG2 XBP1 reporter assay (XBP1(u)-Luc)
- Format: cell-based
- Setup Conditions: Homo sapiens, 6 h, six hours after addition of compound
- Excerpt: HepG2 XBP1 Reporter Assay HepG2 hepatoma cells were transduced with a retrovirus encoding the cDNA for unspliced (u) XBP1, which contains a non-processed intron, fused to the cDNA for firefly luciferase. Upon induction of ER stress, the non-processed intron of XBP1(u) is spliced out by active IRE1alpha endonuclease. The resulting spliced (s) XBP1 is now in frame with luciferase which causes the production of active luciferase protein, resulting in bioluminescence […]
pIC50: −log10 of the molar value.
Listed here: items and their measured pIC50.
Observed Property: pIC50

[
  {
    "Molecule": "Cc1cc(N2CCCOCC2c2cc3c(cc2Cl)NC[C@@](C)(C(=O)NC(C)C)O3)nc(N)n1 (stereo partly drawn) [D-124]",
    "Value Observed": "> 6.22"
  },
  {
    "Molecule": "Cc1cc(N2CCCOC[C@H]2c2cc3c(cc2Cl)CCN3C)nc(N)n1 [D-27]",
    "Value Observed": "> 6.22"
  },
  {
    "Molecule": "Cc1cc(N2CCCOCC2c2cnc(CS(C)(=O)=O)cc2Cl)nc(N)n1 [D-49]",
    "Value Observed": "> 6.22"
  },
  {
    "Molecule": "Cc1cc(N2CCCOC[C@H]2c2ccc(CS(C)(=O)=O)cc2OC(F)F)nc(N)n1 [D-152]",
    "Value Observed": "≤ 5.30"
  },
  {
    "Molecule": "Cc1cc(N2CCCOCC2c2ccc3ncnn3c2)nc(N)n1 [D-175]",
    "Value Observed": "≤ 5.30"
  }
]

----------
- System: XBP1(u)-luciferase splicing reporter in HepG2 hepatoma cells
- Test: HepG2 XBP1 reporter assay (XBP1(u)-Luc)
- Format: cell-based
- Setup Conditions: Homo sapiens, 6 h, six hours after addition of compound
Measured IC50 of individual entries
Observed Property: IC50

[
  {
    "Compound": "Cc1cc(N2CCCOC[C@@H]2c2ccc([C@@H]3CCCN3)cc2Cl)nc(N)n1 [D-91]",
    "Value Observed": "< 600 nM"
  },
  {
    "Compound": "Cc1cc(N2CCCOCC2c2cc3c(cc2Cl)NC[C@@](C)(C(=O)OC(C)C)O3)nc(N)n1 (stereo partly drawn) [D-125]",
    "Value Observed": "< 600 nM"
  },
  {
    "Compound": "COc1ccc([C@@H]2COCCCN2c2cc(C)nc(N)n2)c(Cl)c1 [D-168]",
    "Value Observed": "≥ 5000 nM"
  },
  {
    "Compound": "Cc1cc(N2CCCOC[C@H]2c2ccc(NC(=O)CCO)cc2Cl)nc(N)n1 [D-7]",
    "Value Observed": "600 to 2000 nM"
  },
  {
    "Compound": "Cc1cc(N2CCCOC[C@H]2c2cc(O)c(C)cc2Cl)nc(N)n1 [D-165]",
    "Value Observed": "≥ 5000 nM"
  },
  {
    "Compound": "CCOc1cc(C2COCCCN2c2cc(C)nc(N)n2)c(Cl)cc1OCC(=O)O [D-160]",
    "Value Observed": "≥ 5000 nM"
  },
  {
    "Compound": "CNc1cc(Cl)c([C@@H]2COCCCN2c2cc(C)nc(N)n2)cc1C [D-25]",
    "Value Observed": "< 600 nM"
  },
  {
    "Compound": "COc1cc(C2COCCCN2c2cc(C)nc(N)n2)c(Cl)cc1OCC(=O)NC(C)(C)C [D-32]",
    "Value Observed": "600 to 2000 nM"
  },
  {
    "Compound": "Cc1cc(N2CCCOC[C@@H]2c2cc3c(cc2Cl)NCCC3)nc(N)n1 [D-9]",
    "Value Observed": "< 600 nM"
  },
  {
    "Compound": "CCCC(=O)Nc1ccc(C2COCCCN2c2cc(C)nc(N)n2)c(Cl)c1 [D-95]",
    "Value Observed": "600 to 2000 nM"
  },
  {
    "Compound": "Cc1cc(N2CCCOCC2c2ccc(C(=O)O)cc2Cl)nc(N)n1 [D-187]",
    "Value Observed": "≥ 5000 nM"
  },
  {
    "Compound": "COc1cc(C2COCCCN2c2cc(C)nc(N)n2)c(Cl)cc1N1CCOCC1 [D-19]",
    "Value Observed": "600 to 2000 nM"
  },
  {
    "Compound": "Cc1cc(N2CCCOCC2c2cc(CN)c(C)cc2Cl)nc(N)n1 [D-46]",
    "Value Observed": "< 600 nM"
  },
  {
    "Compound": "CS(=O)(=O)c1ccc(C2COCCCN2c2ccnc(N)n2)c(Cl)c1 [D-138]",
    "Value Observed": "≥ 5000 nM"
  },
  {
    "Compound": "CNc1cc(Cl)c([C@H]2COCCCN2c2cc(C)nc(N)n2)cc1C [D-26]",
    "Value Observed": "< 600 nM"
  },
  {
    "Compound": "Cc1cc(N2CCCOC[C@@H]2c2cc3c(cc2Cl)NC[C@@](C)(C(=O)O)O3)nc(N)n1 [D-181]",
    "Value Observed": "≥ 5000 nM"
  },
  {
    "Compound": "CCc1cc(N2CCCOC[C@@H]2c2ccc(CS(C)(=O)=O)cc2Cl)nc(N)n1 [D-59]",
    "Value Observed": "< 600 nM"
  },
  {
    "Compound": "COc1cc([C@H]2COCCCN2c2cc(C)nc(N)n2)c(Cl)cc1OCC#N [D-38]",
    "Value Observed": "< 600 nM"
  },
  {
    "Compound": "Cc1cc(N2CCCOC[C@@H]2c2cc(O)c(OC(F)F)cc2Cl)nc(N)n1 [D-57]",
    "Value Observed": "< 600 nM"
  },
  {
    "Compound": "Cc1cc(N2CCCOC[C@H]2c2cc3c(cc2Cl)OCC(C)(C)CO3)nc(N)n1 [D-154]",
    "Value Observed": "≥ 5000 nM"
  },
  {
    "Compound": "C=CCOc1cc(Cl)c(C2COCCCN2c2cc(C)nc(N)n2)cc1OCC [D-48]",
    "Value Observed": "600 to 2000 nM"
  },
  {
    "Compound": "CCOC(=O)[C@@]1(C)CNc2cc(Cl)c([C@@H]3COCCCN3c3cc(C)nc(N)n3)cc2O1 [D-157]",
    "Value Observed": "≥ 5000 nM"
  },
  {
    "Compound": "Cc1cc(N2CCCOCC2c2ccc(CS(C)(=O)=O)nc2F)nc(N)n1 [D-33]",
    "Value Observed": "2000 to 5000 nM"
  },
  {
    "Compound": "Cc1cc(N2CCCOC[C@@H]2c2ccc(C(C)(C)S(C)(=O)=O)cc2Cl)nc(N)n1 [D-191]",
    "Value Observed": "≥ 5000 nM"
  },
  {
    "Compound": "CCC(=O)Nc1cc(Cl)c(C2COCCCN2c2cc(C)nc(N)n2)cc1C [D-12]",
    "Value Observed": "600 to 2000 nM"
  },
  {
    "Compound": "CCc1cc(N2CCCOCC2c2cc(O)c(CS(C)(=O)=O)cc2Cl)nc(N)n1 [D-98]",
    "Value Observed": "< 600 nM"
  },
  {
    "Compound": "Cc1cc(N2CCCOC[C@H]2c2ccc(OCS(C)(=O)=O)cc2Cl)nc(N)n1 [D-2]",
    "Value Observed": "< 600 nM"
  },
  {
    "Compound": "C#CCOc1cc(Cl)c([C@H]2COCCCN2c2cc(C)nc(N)n2)cc1OC [D-105]",
    "Value Observed": "< 600 nM"
  },
  {
    "Compound": "Cc1cc(N2CCCOC[C@@H]2c2cc3c(cc2Cl)NC[C@@](C)(C(=O)N(C)C)O3)nc(N)n1 [D-132]",
    "Value Observed": "< 600 nM"
  },
  {
    "Compound": "Cc1cc(N2CCCOC[C@@H]2c2ccc(CS(C)(=O)=O)nc2OC(F)F)nc(N)n1 [D-93]",
    "Value Observed": "< 600 nM"
  },
  {
    "Compound": "Cc1cc(N2CCCOC[C@H]2c2cc(N)c(OC(F)(F)F)cc2Cl)nc(N)n1 [D-161]",
    "Value Observed": "≥ 5000 nM"
  },
  {
    "Compound": "Cc1cc(N2CCCOC[C@@H]2c2cc(O)c(C(N)=O)cc2Cl)nc(N)n1 [D-115]",
    "Value Observed": "600 to 2000 nM"
  },
  {
    "Compound": "COc1cc(N2CCCOCC2c2cc(C)nc(N)n2)c(Cl)cc1OCC(=O)Nc1ccccc1 [D-39]",
    "Value Observed": "600 to 2000 nM"
  },
  {
    "Compound": "Cc1cc(N2CCCOCC2c2ncc(CS(C)(=O)=O)cc2F)nc(N)n1 [D-43]",
    "Value Observed": "600 to 2000 nM"
  },
  {
    "Compound": "Cc1cc(N2CCCOCC2c2ccc(S(C)(=O)=O)cc2C#N)nc(N)n1 [D-190]",
    "Value Observed": "≥ 5000 nM"
  },
  {
    "Compound": "Cc1cc(N2CCCOC[C@H]2c2cc(O)c(C(=O)N3CCOCC3)cc2Cl)nc(N)n1 [D-189]",
    "Value Observed": "≥ 5000 nM"
  },
  {
    "Compound": "CCc1cc(N2CCCOC[C@@H]2c2cc(O)c(OC)cc2Cl)nc(N)n1 [D-104]",
    "Value Observed": "< 600 nM"
  }
]
